Below is a list of entries, each paired with its recorded Plant response rating, Goosegrass value.
- System: goosegrass
- testDetails: Test C pre-/postemergence herbicide test
- Type: in vivo, Eleusine indica
- experimentalConditions: 125 g ai/ha; scale 0 (no effect) to 100 (complete control); visual, 12 to 14 days; preemergence
- Description: […]
The reply should be a number, written without any unit.

Examples from the recorded data:
[
  {
    "structureSmiles": "C#CCn1nc(C(C)(C)C)cc1C(=O)Nc1cccc(C(=O)NCC)c1",
    "assayedTarget": "goosegrass",
    "assayResult": 80
  },
  {
    "structureSmiles": "CCn1nc(C(C)(C)C)cc1C(=O)Nc1cccc(C(N)=O)n1",
    "assayedTarget": "goosegrass",
    "assayResult": 60
  },
  {
    "structureSmiles": "CCNC(=O)c1cccc(NC(=O)c2sc(C(C)(C)C)nc2CC)n1",
    "assayedTarget": "goosegrass",
    "assayResult": 60
  }
]

Prompt: Returns the measured Plant response rating, Goosegrass for the input molecule. Input: CCc1nn(C(C)(C)C)cc1C(=O)Nc1cc(C(=O)N(C)C)ccn1
Response: 85

Prompt: Continue with CCn1nc(C(C)(C)C)cc1C(=O)Nc1cccc(OC(F)F)c1
Response: 85

* * *

- Tested on: bermudagrass
- testDetails: Test C pre-/postemergence herbicide test
- Assay type: in vivo, Cynodon dactylon
- experimentalConditions: 125 g ai/ha; scale 0 (no effect) to 100 (complete control); visual, 12 to 14 days; preemergence
Below is a list of entries, each paired with its recorded Plant response rating, Bermudagrass value.
The reply should be a number, written without any unit.

Prompt: Returns the measured Plant response rating, Bermudagrass for the input compound. Input: CCn1nc(C(C)(C)C)cc1C(=O)Nc1cc(C(=S)N(C)C)ccc1F
Response: 80

* * *

- Test system: velvetleaf
- testDetails: Test B pre-/postemergence herbicide test
- Assay type: in vivo, Abutilon theophrasti
- experimentalConditions: 125 g ai/ha; visual rating, scale 0 (no effect) to 100 (complete control); postemergence
Threshold check on Velvetleaf plant response rating: at or above 20 gives Satisfied, strictly below gives Not satisfied.

Here's what some known entries look like.
[
  {
    "compound": "CCc1nn(C(C)(C)C)nc1C(=O)Nc1cccc(C(=O)N(C)CC)c1",
    "assayedTarget": "velvetleaf",
    "category": "Satisfied"
  },
  {
    "compound": "CCn1nc(C2(C)CC2)cc1C(=O)Nc1cc(C(=O)N(C)C)ccc1F",
    "assayedTarget": "velvetleaf",
    "category": "Satisfied"
  },
  {
    "compound": "Cc1nn(C(C)C)nc1C(=O)Nc1cccc(C(=O)N(C)C)c1",
    "assayedTarget": "velvetleaf",
    "category": "Satisfied"
  },
  {
    "compound": "CCNC(=O)c1ccc(F)c(NC(=O)c2nn(C(C)(C)CC)nc2CC)c1",
    "assayedTarget": "velvetleaf",
    "category": "Not satisfied"
  },
  {
    "compound": "CCc1nn(C(C)(C)C)nc1C(=O)Nc1cccc(C(=O)N2CC=CC2)c1",
    "assayedTarget": "velvetleaf",
    "category": "Not satisfied"
  }
]

Prompt: Check this compound for Velvetleaf plant response rating at or above 20: Cc1nn(C(C)C)nc1C(=O)Nc1cc(C(=O)N(C)C)ccc1F
Response: Not satisfied

Prompt: Continue with CCc1nn(C(C)(C)C)nc1C(=O)Nc1cc(C(=O)N(C)C)ccc1F
Response: Not satisfied

Prompt: Continue with CCOC(=O)c1ccc(F)c(NC(=O)C2CN(C(C)(C)C)N=C2CC)c1 (racemic)
Response: Satisfied

The reported measurements were obtained from patent US20060069132A1.
